TARGET_DESC: T1, human PRLR ECD-Fc fusion protein (human, UniProt P16471 25-233)
T1 construct: not shown: Fc region (captured by goat anti-human Fc)
T1 sequence: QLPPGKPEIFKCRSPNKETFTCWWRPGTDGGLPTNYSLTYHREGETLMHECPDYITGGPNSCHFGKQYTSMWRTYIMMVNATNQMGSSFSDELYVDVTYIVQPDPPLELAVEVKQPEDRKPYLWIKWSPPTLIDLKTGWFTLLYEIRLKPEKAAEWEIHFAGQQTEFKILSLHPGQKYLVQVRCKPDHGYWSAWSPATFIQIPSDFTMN
ASSAY_DETAILS: ELISA on ECD
MEASURED_PARAMETER: EC50 (nM)

INSERT INTO assay_data (binder, measured_parameter, observed) VALUES
  ('Ab14 (antibody, human IgG1, kappa, V domains shown, humanized from Ab6; G1; also called Ab1 HC.1 & Ab1 LC.1) VH: EVQLVQSGAEVKKPGSSVKVSCKASGYTFTTYWMHWVRQAPGQGLEWMGEIDPSDSYSNYNQKFKDRVTITADKSTSTAYMELSSLRSEDTAVYYCARNGGLGPAWFSYWGQGTLVTVSS VL: DIQMTQSPSSVSASVGDRVTITCKASQYVGTAVAWYQQKPGKAPKLLIYSASNRYTGVPSRFSGSGSGTDFTLTISSLQPEDFATYYCQQYSSYPWTFGGGTKVEIKR', 'EC50', 0.0329);
